The reported numbers originate from paper PMC1277809.

Target: T1, LexA (DinR) wild type (Bacillus subtilis, UniProt P31080 1-205)
T1 sequence: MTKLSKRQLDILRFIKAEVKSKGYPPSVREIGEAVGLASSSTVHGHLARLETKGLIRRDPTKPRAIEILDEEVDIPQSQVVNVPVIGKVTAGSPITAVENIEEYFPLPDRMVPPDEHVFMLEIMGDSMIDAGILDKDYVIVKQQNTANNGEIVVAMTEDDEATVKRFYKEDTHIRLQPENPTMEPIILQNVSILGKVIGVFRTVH
Assay: competition EMSA
readout: Ki (nM)

1. recA op A6G (dsDNA) DNA 1: GGGGGGCGAATGTGCGTTCGCCCCCC DNA 2: GGGGGGCGAACGCACATTCGCCCCCC    6.4
